B1: tRNA (parent)
chain: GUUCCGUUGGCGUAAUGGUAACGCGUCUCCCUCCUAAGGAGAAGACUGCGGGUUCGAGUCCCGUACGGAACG

# Variants of: B1
# protocolDetails: yeast fitness relative to wild type (ratio to wild type); higher = fitter; tRNA-Arg(CCU), competitive growth, 37 C, YPD
Fewer inactive variants are shown than the library holds.

mutationId | yeast fitness
U3C C4A G17A G41A C66U | ≤ 0.5
G6C C31U C34G | ≤ 0.5
U3A U19C C29A A36U | ≤ 0.5
